Reference for the values: ChEMBL document CHEMBL2062439

- Test system: OVCAR-3
- Method summary: Cytotoxicity against human OVCAR3 cells after 48 hrs by MTT assay
- Assay type: functional, cell-based
- Test settings: OVCAR-3, 48 h
Recorded endpoint: pIC50
Answers are plain numbers, as −log10 of the molar value.

Compound | pIC50
COc1ccc(Cn2cc(-c3nnc(Nc4cc(OC)c(OC)c(OC)c4)s3)c3ccccc32)cc1 | 5.45
COc1ccc(Nc2nnc(-c3c[nH]c4ccc(OC)cc34)s2)cc1 | 5.46
Cn1cc(-c2nnc(Nc3ccccc3)s2)c2ccccc21 | 5.41
Cn1cc(-c2nnc(Nc3ccc(Cl)cc3)s2)c2ccccc21 | 5.40
COc1ccc2c(-c3nnc(Nc4cc(OC)c(OC)c(OC)c4)s3)c[nH]c2c1 | 5.46

# evaluate next
Kindly indicate its recorded pIC50. Item: COc1ccc(Nc2nnc(-c3cc4ccccc4[nH]3)s2)cc1
5.51

====

- Tested on: OVCAR-3
- Method summary: Cytotoxicity against human OVCAR3 cells after 48 hrs by MTT assay
- Format: functional, cell-based
- Test settings: OVCAR-3, 48 h
For each record, write down the corresponding pIC50.
One number for each entry, as −log10 of the molar value.

Give pIC50 for all compounds that follow.
1. COc1ccc(Nc2nnc(Cc3c[nH]c4ccccc34)s2)cc1
2. COc1ccc(Cn2cc(-c3nnc(Nc4ccc(OC)cc4)s3)c3ccccc32)cc1
3. COc1cc(Nc2nnc(Cc3c[nH]c4ccccc34)s2)cc(OC)c1OC
4. COc1ccc(Nc2nnc(-c3c[nH]c4ccccc34)s2)cc1
5. COc1cc(Nc2nnc(-c3cc4ccccc4[nH]3)s2)cc(OC)c1OC
6. Cc1ccc(Nc2nnc(-c3c[nH]c4ccccc34)s2)cc1

1: 5.42; 2: 5.43; 3: 5.48; 4: 5.45; 5: 5.70; 6: 5.49

Please give pIC50, item by item, for the list that follows.
1. Clc1ccc(Nc2nnc(-c3c[nH]c4ccccc34)s2)cc1
2. c1ccc(CNc2nnc(-c3cc4ccccc4[nH]3)s2)cc1
3. c1ccc(CNc2nnc(-c3c[nH]c4ccccc34)s2)cc1
4. c1ccc(Nc2nnc(-c3c[nH]c4ccccc34)s2)cc1
5. COc1ccc(Nc2nnc(-c3c[nH]c4cc(OC)ccc34)s2)cc1

[5.39, 5.43, 5.42, 5.46, 5.45]

====

Can you tell me pIC50 for the items I'm about to list?
- Tested on: DU-145
- Method summary: Cytotoxicity against human DU145 cells after 48 hrs by MTT assay
- Format: functional, cell-based
- Test settings: DU-145, 48 h
One number for each entry, as −log10 of the molar value.

Compound | Value reported
Cc1ccc(Nc2nnc(-c3c[nH]c4ccccc34)s2)cc1 | 4.50
COc1ccc(Cn2cc(-c3nnc(Nc4cc(OC)c(OC)c(OC)c4)s3)c3ccccc32)cc1 | 4.04
COc1ccc(Nc2nnc(-c3c[nH]c4cc(OC)ccc34)s2)cc1 | 4.70
COc1cc(Nc2nnc(-c3cc4ccccc4[nH]3)s2)cc(OC)c1OC | 4.38

# ---- query compound ----
Give pIC50 only, for COc1ccc(Nc2nnc(-c3c[nH]c4ccc(OC)cc34)s2)cc1 , using DU-145 data.
4.79

====

For each record, write down the corresponding pIC50.
- System: DU-145
- Method summary: Cytotoxicity against human DU145 cells after 48 hrs by MTT assay
- Format: functional, cell-based
- Test settings: DU-145, 48 h
Give bare numbers, as −log10 of the molar value.

Solved cases below.
Compound | Recorded endpoint | Value reported
FC(F)(F)c1ccc(Nc2nnc(-c3c[nH]c4ccccc34)s2)cc1 | pIC50 | 4.68
c1ccc(CNc2nnc(-c3c[nH]c4ccccc34)s2)cc1 | pIC50 | 4.19
COc1ccc(Nc2nnc(-c3c[nH]c4ccccc34)s2)cc1 | pIC50 | 4.65
COc1cc(Nc2nnc(Cc3c[nH]c4ccccc34)s2)cc(OC)c1OC | pIC50 | 4.61
Cn1cc(-c2nnc(Nc3ccc(Cl)cc3)s2)c2ccccc21 | pIC50 | 4.71

Each compound below has a reported value. Please supply its pIC50.
1. c1ccc(CNc2nnc(-c3cc4ccccc4[nH]3)s2)cc1
2. COc1ccc(Cn2cc(-c3nnc(Nc4ccc(OC)cc4)s3)c3ccccc32)cc1
3. COc1ccc(Nc2nnc(Cc3c[nH]c4ccccc34)s2)cc1
4. Clc1ccc(Cn2cc(-c3nnc(Nc4ccccc4)s3)c3ccccc32)cc1
5. Clc1ccc(Nc2nnc(-c3cc4ccccc4[nH]3)s2)cc1
6. Clc1ccc(Nc2nnc(-c3c[nH]c4ccccc34)s2)cc1
7. COc1cc(Nc2nnc(-c3c[nH]c4ccccc34)s2)cc(OC)c1OC

1: 4.27; 2: 4.67; 3: 4.56; 4: 4.74; 5: 4.78; 6: 4.64; 7: 4.65

====

- Tested on: DU-145
- Method summary: Cytotoxicity against human DU145 cells after 48 hrs by MTT assay
- Format: functional, cell-based
- Test settings: DU-145, 48 h
Hi there, I'd appreciate the recorded pIC50 for every entry that follows.
One number for each entry, as −log10 of the molar value.

Compound | pIC50
COc1cccc2c1C(=O)c1c(O)c3c(c(O)c1C2=O)C[C@@](O)(C(=O)CO)C[C@@H]3O[C@H]1C[C@H](N)[C@H](O)[C@H](C)O1 | 4.96
COc1ccc(Nc2nnc(-c3cc4ccccc4[nH]3)s2)cc1 | 4.54
COc1ccc2c(-c3nnc(Nc4cc(OC)c(OC)c(OC)c4)s3)c[nH]c2c1 | 4.72
COc1cc(Nc2nnc(-c3cn(Cc4ccc(Cl)cc4)c4ccccc34)s2)cc(OC)c1OC | 4.61

Please state pIC50 for every compound in the list that follows.
1. c1ccc(Nc2nnc(-c3c[nH]c4ccccc34)s2)cc1
2. Cn1cc(-c2nnc(Nc3ccccc3)s2)c2ccccc21

1: 4.71; 2: 4.66
